As shown below, each of these molecules has a reported cell viability value.
Test system: P12-Ichikawa
Assay: cell viability relative to DMSO control; higher = less cytotoxic
Conditions: RPMI 5 mM glucose + 10% dialyzed FBS; 48 h; 15.4 µM
Please state the value followed by its unit.

Recorded cell viability, per entry:
Problem: What cell viability value was documented for this molecule, "CC(C)(O)/C=C\C(=O)[C@](C)(O)[C@H]1[C@H](O)C[C@]2(C)[C@@H]3CC=C4[C@@H](C=C(O)C(=O)C4(C)C)[C@]3(C)C(=O)C[C@@]12C" ?
Solution: 6.49%

Problem: Likewise for "CC(C)Oc1ccc(C(=O)N[C@H](CNC(=O)CN(C)C)Cc2ccc(-c3cn4cccc([C@H](C)O)c4n3)cc2)cc1Cl" ?
Solution: 31.6%

Here is another molecule to look at.
Problem: What cell viability value was documented for this molecule, "Nc1nc(Cl)nc2c1ncn2[C@@H]1O[C@H](CO)[C@@H](O)[C@@H]1F" ?
Solution: 20.3%

* * *

Test system: NOMO1
Assay: AUC of viability dose-response curve (% viability x log10 dose units); higher = less sensitive
Settings: RPMI 5 mM glucose + 10% dialyzed FBS; 48 h
Quantity: AUC of viability dose-response curve
The answer should be a number; do not append a unit.

Problem: What AUC of viability dose-response curve value was documented for this molecule, "CN1CCN(CCOc2cc(OC3CCOCC3)c3c(Nc4c(Cl)ccc5c4OCO5)ncnc3c2)CC1" ?
Solution: 459

Problem: Likewise for CNC(=O)N1\N=C(\C2=CC=C(N)C=C2)C3=CC4=C(OCO4)C=C3CC1C (stereo not given) ?
Solution: 449

Problem: Likewise for "N=C1N[C@H]2[C@H](CS[C@H]2CCCCC(=O)O)N1" ?
Solution: 443

Problem: Likewise for "CC/1=C(\O)C(=O)\C=C2/C1=C/C=C3\[C@@]2(C)CC[C@@]4(C)[C@@H]5C[C@@](C)(CC[C@]5(C)CC[C@]34C)C(O)=O" ?
Solution: 363

Here is another molecule to look at.
Problem: What AUC of viability dose-response curve value was documented for this molecule, "c1ccc(-c2oc3ncnc(NC[C@@H]4CCCO4)c3c2-c2ccccc2)cc1" ?
Solution: 454

* * *

Test system: NOMO1
Experiment: cell viability relative to DMSO control; higher = less cytotoxic
Conditions: RPMI 5 mM glucose + 10% FBS; 48 h; 0.569 µM
Quantity: cell viability

Problem: What cell viability value was documented for this compound, "C[C@H]1O[C@H](C[C@H](O)[C@@H]1O)O[C@H]2[C@@H](O)C[C@@H](O[C@@H]2C)O[C@H]3[C@@H](O)C[C@@H](O[C@@H]3C)O[C@H]4CC[C@@]5(C)[C@H](CC[C@@H]6[C@@H]5C[C@@H](O)[C@]7(C)[C@H](CC[C@]67O)C/8=C/C(=O)OC8)C4" ?
Solution: 21.9%

***
Problem: What cell viability value was documented for this compound, "C[C@@]1(C(=O)Nc2ccc(F)nc2)CCCN1c1nc(Nc2cc(C3CC3)[nH]n2)c2cccn2n1" ?
Solution: 112%

Problem: Likewise for "COC(=O)\C1=C\CCN(C)C1" ?
Solution: 110%

Problem: Likewise for "C=CCc1ccc(O)c(-c2ccc(O)c(CC=C)c2)c1" ?
Solution: 95.3%

Problem: Likewise for "NC(=O)c1ncn([C@@H]2O[C@H](CO)[C@@H](O)[C@H]2O)c1O" ?
Solution: 129%

Measured values drawn from the supplement of paper PMC11451515 for this set.
